Molecular target: recombinant human MAO-B (monoamine oxidase-B) (Homo sapiens)
Construct: purchased Sigma-Aldrich
Sequence (P27338 1-520): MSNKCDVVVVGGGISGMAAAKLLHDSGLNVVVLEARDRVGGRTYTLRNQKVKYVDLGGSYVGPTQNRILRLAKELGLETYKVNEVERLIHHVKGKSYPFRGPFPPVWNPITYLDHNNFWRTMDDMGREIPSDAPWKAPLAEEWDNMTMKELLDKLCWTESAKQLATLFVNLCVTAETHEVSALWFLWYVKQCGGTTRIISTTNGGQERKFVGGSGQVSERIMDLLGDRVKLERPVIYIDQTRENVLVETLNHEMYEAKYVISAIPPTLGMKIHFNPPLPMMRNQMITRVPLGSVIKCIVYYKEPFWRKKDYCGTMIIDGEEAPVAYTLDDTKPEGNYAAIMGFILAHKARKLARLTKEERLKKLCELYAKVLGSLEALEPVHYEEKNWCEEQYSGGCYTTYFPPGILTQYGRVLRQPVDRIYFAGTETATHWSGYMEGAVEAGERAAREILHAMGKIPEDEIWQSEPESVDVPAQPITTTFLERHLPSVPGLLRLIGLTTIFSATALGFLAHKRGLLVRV
Assay: Activity evaluation on recombinant human MAO-B (Amplex Red/HRP-coupled assay, 1 mM benzylamine substrate)
Assay type: biochemical
Settings: 1 mM benzylamine substrate, read-out: Inhibitory Activity (IC50, nM) MAO-B
Where a name gives a salt, the structure may show the parent alone.
Some molecules, each annotated with its measured IC50.

[[record]]
molecule = "CC(C)n1cc(-c2csc(Cn3cnn(CC(CN)=C(F)F)c3=O)c2)ccc1=O [Example 187, Trifluoroacetate]"
val = "> 100000 nM"

[[record]]
molecule = "NCC(Cn1ncn(Cc2sc(-c3ccc(N4CCNCC4)cc3)cc2F)c1=O)=C(F)F [Example 298, ditrifluoroacetate]"
val = "> 100000 nM"

[[record]]
molecule = "CN(C)c1ccc(-c2cc(F)c(Cn3cnn(CC(CN)=C(F)F)c3=O)s2)cn1 [Example 303, trifluoroacetate]"
val = "> 100000 nM"

[[record]]
molecule = "Cc1cc(-c2ccc(C(=O)N3CCOCC3)cc2)cnc1-n1cnn(CC(CN)=C(F)F)c1=O [Example 236, Trifluoroacetate]"
val = "> 100000 nM"

[[record]]
molecule = "Cc1cc(-c2ccc3c(c2)CN(C)C(=O)N3)cnc1-n1cnn(CC(CN)=C(F)F)c1=O [Example 250, Trifluoroacetate]"
val = "> 100000 nM"

[[record]]
molecule = "NCC(Cn1ncn(Cc2cc3ccc(-c4ccc5c(c4)OCO5)cc3s2)c1=O)=C(F)F [Example 201, Trifluoroacetate]"
val = "2000 nM"


As a next step, examine the molecule that follows.
Prompt: # value lookup — system recombinant human MAO-B (monoamine oxidase-B) (Homo sapiens), readout IC50, item NCC(Cn1ncn(Cc2ccc(-c3cnn(C(F)F)c3)s2)c1=O)=C(F)F [Example 183, Trifluoroacetate]
Completion: 2100 nM
